Biological target: Cannabinoid receptor (Homo sapiens) (UniProt P34972+P21554)
Sequence (P21554 whole entry, looked up): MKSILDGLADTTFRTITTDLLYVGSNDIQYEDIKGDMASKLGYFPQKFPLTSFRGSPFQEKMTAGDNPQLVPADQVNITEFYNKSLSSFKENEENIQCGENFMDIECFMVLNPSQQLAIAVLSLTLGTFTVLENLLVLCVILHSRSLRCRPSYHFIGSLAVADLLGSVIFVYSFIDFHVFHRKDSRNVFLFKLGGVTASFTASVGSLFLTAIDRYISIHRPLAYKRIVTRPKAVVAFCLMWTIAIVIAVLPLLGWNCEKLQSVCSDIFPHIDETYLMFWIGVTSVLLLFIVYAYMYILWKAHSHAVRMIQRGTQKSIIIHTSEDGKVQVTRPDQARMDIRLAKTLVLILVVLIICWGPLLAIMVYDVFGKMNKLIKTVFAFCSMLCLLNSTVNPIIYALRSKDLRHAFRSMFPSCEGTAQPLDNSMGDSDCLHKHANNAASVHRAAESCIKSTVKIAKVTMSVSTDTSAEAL
Sequence (P34972 whole entry, looked up): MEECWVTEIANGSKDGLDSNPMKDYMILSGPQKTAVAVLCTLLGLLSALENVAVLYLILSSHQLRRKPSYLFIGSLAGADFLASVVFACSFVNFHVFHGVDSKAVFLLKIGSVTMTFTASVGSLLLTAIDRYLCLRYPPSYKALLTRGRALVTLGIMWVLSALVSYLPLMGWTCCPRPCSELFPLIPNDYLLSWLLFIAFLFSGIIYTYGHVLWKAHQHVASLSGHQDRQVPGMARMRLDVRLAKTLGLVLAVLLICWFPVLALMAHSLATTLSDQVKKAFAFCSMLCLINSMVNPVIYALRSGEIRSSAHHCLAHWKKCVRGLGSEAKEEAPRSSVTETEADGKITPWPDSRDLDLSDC
Assay: Ratio of Ki of CB1 receptor to that of CB2 receptor
Type: protein assay
Threshold rule: Ratio greater than or equal to 8 is YES; below that, NO.

SMILES_REPRESENTATION	CLASS
CCCCCCC(C)(C)c1cc(OC)c2c(c1)OC(C)(C)c1ccc(C)cc1-2	NO
CCCC(C)(C)c1ccc(-c2cc(C)ccc2C(C)C)c(O)c1	NO
CCCC(C)(C)c1ccc2c(c1)OC(C)(C)c1ccc(CO)cc1-2	NO
CCCCCCC(C)(C)c1ccc2c(c1)OC(C)(C)c1ccc(CO)cc1-2	NO
CCCCCCC(C)(C)c1ccc2c(c1)OC(C)(C)c1ccc(C(=O)OC)cc1-2	NO
CCCCCCC(C)(C)c1cc(OC)c2c(c1)OC(C)(C)c1ccc(C(=O)OC)cc1-2	YES
CCCC(C)(C)c1cc(O)c2c(c1)OC(C)(C)c1ccc(C)cc1-2	NO
CCCCCCC(C)(C)c1ccc(-c2cc(C)ccc2C(C)C)c(O)c1	YES
CCCC(C)(C)c1ccc2c(c1)OC(C)(C)c1ccc(C(=O)OC)cc1-2	YES

----------
Biological target: Cannabinoid receptor (Homo sapiens) (UniProt P34972+P21554)
Assay: Ratio of Ki of CB1 receptor to that of CB2 receptor
Type: protein assay
Ratio by entry:
METRIC: Ratio

SMILES_REPRESENTATION	READING
CCCCCCC(C)(C)c1ccc2c(c1)OC(C)(C)c1ccc(C)cc1-2	2.6
CCCCCCC(C)(C)c1cc(O)c2c(c1)OC(C)(C)c1ccc(C(=O)OC)cc1-2	3.7
CCCCCCC(C)(C)c1cc(O)c2c(c1)OC(C)(C)c1ccc(C)cc1-2	0.4
CCCCCCC(C)(C)c1cc(O)c2c(c1)OC(C)(C)c1ccc(CO)cc1-2	0.5

----------
Target: UniProt P34972
Assay: Binding affinity was determined for Cannabinoid receptor 2

SMILES_REPRESENTATION	SCALE_UNIT	QUALIFIER_SIGN	Ki
CCCCCCC(C)(C)c1ccc2c(c1)OC(C)(C)c1ccc(C(=O)OC)cc1-2	nM	=	276
CCCCCCC(C)(C)c1ccc2c(c1)OC(C)(C)c1ccc(CO)cc1-2	nM	=	1
CCCCCCOC(=O)c1ccc2c(c1)-c1c(OC)cc(C(C)(C)CCCCCC)cc1OC2(C)C	nM	>	10000
CCCC(C)(C)c1cc(O)c2c(c1)OC(C)(C)c1ccc(C)cc1-2	nM	=	6
CCCCCCC(C)(C)c1ccc2c(c1)OC(C)(C)c1ccc(C)cc1-2	nM	=	167

----------
Form field: pKi (one value per entry).
Molecular target: UniProtKB P34972
Assay: Binding affinity was determined for Cannabinoid receptor 2
pKi: −log10 of the molar value.

SMILES_REPRESENTATION	QUALIFIER_SIGN	pKi
CCCCCCC(C)(C)c1cc(O)c2c(c1)OC(C)(C)c1ccc(C(=O)OC)cc1-2	=	8.42
CCCCCCC(C)(C)c1cc(OC)c2c(c1)OC(C)(C)c1ccc(C(=O)OC(C)C)cc1-2	<	5.00
CCCC(C)(C)c1ccc2c(c1)OC(C)(C)c1ccc(C(=O)OC)cc1-2	=	6.21
CCCCCCC(C)(C)c1cc(OC)c2c(c1)OC(C)(C)c1ccc(C(=O)OC)cc1-2	=	6.28
CCCC(C)(C)c1ccc2c(c1)OC(C)(C)c1ccc(CO)cc1-2	=	7.17
CCCCCCC(C)(C)c1cc(OC)c2c(c1)OC(C)(C)c1ccc(C)cc1-2	=	6.54
CCCCCCC(C)(C)c1cc(OC)c2c(c1)OC(C)(C)c1ccc(C(=O)OCCC)cc1-2	=	6.67
CCCCCCC(C)(C)c1cc(OC)c2c(c1)OC(C)(C)c1ccc(C(=O)OCc3ccc4ccccc4c3)cc1-2	<	5.00
CCCCCCC(C)(C)c1cc(OC)c2c(c1)OC(C)(C)c1ccc(C(=O)OCc3ccccc3)cc1-2	<	5.00
